- assay-name: UV shielding properties (UV spectra in ethanol)
- Assay type: physicochemical
- conditions: UV spectra in ethanol
value-kind: Absorption maximum 1 A^1%1 cm

[
  {
    "record-smiles": "COC(=O)c1cc(O)c(=O)c2c(OC)c(O)c(OCCO)cc2c1",
    "value-kind": "Absorption maximum 1 A^1%1 cm",
    "numeric-readout": 804
  }
]

1. COC(=O)c1cc(O)c(=O)c2c(O)c(O)c(OCCCO[C@@H]3O[C@H](CO)[C@@H](O)[C@H](O)[C@H]3O)cc2c1
2. COc1cc2cc(C(=O)O)cc(O)c(=O)c2c(O)c1O
Request: Task for the reader: decide whether 1 or 2 has the larger Absorption maximum 1 A^1%1 cm. // caller expects the label of the chosen entry
Result: 2

====

- assay-name: UV shielding properties (UV spectra in ethanol)
- Type: physicochemical
- conditions: UV spectra in ethanol
value-kind: Absorption maximum 2 A^1%1 cm

[
  {
    "record-smiles": "CCCCCCCCCCCCOc1cc2cc(C(=O)OC)cc(O)c(=O)c2c(O)c1O",
    "Absorption maximum 2 A^1%1 cm": 231
  }
]

a. COc1cc2cc(C(=O)O)cc(O)c(=O)c2c(O)c1O
b. Cc1cc2cc(C(=O)O)cc(O)c(=O)c2c(O)c1O
c. CCCCCCCCCCCCOc1cc2cc(C(=O)OCCCCCCCC)cc(O)c(=O)c2c(O)c1O
Request: Would you mind ranking these compounds by ascending Absorption maximum 2 A^1%1 cm? List each label, following the requested order.
Result: c, a, b

====

- assay-name: UV shielding properties (UV spectra in ethanol)
- Type: physicochemical
- conditions: UV spectra in ethanol
value-kind: Absorption maximum 1 A^1%1 cm

Consider the reported Absorption maximum 1 A^1%1 cm for these compounds:
[
  {
    "record-smiles": "CCCCCCCCCCCCOc1cc2cc(C(=O)OCCCCCCCC)cc(O)c(=O)c2c(O)c1O",
    "Absorption maximum 1 A^1%1 cm": 575
  },
  {
    "record-smiles": "COC(=O)c1cc(O)c(=O)c2c(O)c(O)c(O[C@@H]3O[C@H](CO)[C@@H](O)[C@H](O)[C@H]3O)cc2c1",
    "Absorption maximum 1 A^1%1 cm": 593
  }
]

a. CCCCCCCCCCCCOc1cc2cc(C(=O)OC)cc(O)c(=O)c2c(O)c1O
b. O=C(O)c1cc(O)c(=O)c2c(O)c(O)ccc2c1
Request: Would you let me know which has the greater Absorption maximum 1 A^1%1 cm value, a or b ? Indicate which entry you chose by stating its label.
Result: b

====

- assay-name: UV shielding properties (UV spectra in ethanol)
- Type: physicochemical
- conditions: UV spectra in ethanol
value-kind: Absorption maximum 2 A^1%1 cm

[
  {
    "record-smiles": "O=C(O)CCCCCOc1cc2cc(C(=O)O)cc(O)c(=O)c2c(O)c1O",
    "Absorption maximum 2 A^1%1 cm": 236
  }
]

I. COC(=O)c1cc(O)c(=O)c2c(O)c(O)cc(CCC(=O)O)c2c1
II. O=C(O)c1cc(O)c(=O)c2c(O)c(O)c(O[C@@H]3O[C@H](CO)[C@@H](O)[C@H](O)[C@H]3O)cc2c1
III. O=c1c(O)cccc2cc(O)c(O)c(O)c12
IV. CCOC(=O)CCCCCOc1cc2cc(C(=O)O)cc(O)c(=O)c2c(O)c1O
Request: Hey, can you sort those compounds up there by Absorption maximum 2 A^1%1 cm, smallest first? When ranking, write the labels in the order the request describes.
Result: II, IV, I, III
(II: 174, IV: 250, I: 383, III: 1179)

A. O=C(O)c1cc(O)c(=O)c2c(O)c(O)ccc2c1
B. COC(=O)c1cc(O)c(=O)c2c(O)c(O)c(O[C@@H]3O[C@H](CO)[C@@H](O)[C@H](O)[C@H]3O)cc2c1
Request: Identify the entry with the larger Absorption maximum 2 A^1%1 cm. Options: A and B Give the chosen item's label as your response.
Result: A
(A: 460, B: 246)

I. COC(=O)c1cc(O)c(=O)c2c(O)c(O)ccc2c1
II. CCCCCCCCOC(=O)c1cc(O)c(=O)c2c(O)c(O)c(C)cc2c1
III. COC(=O)c1cc(O)c(=O)c2c(O)c(O)cc(CCO)c2c1
IV. COC(=O)c1cc(O)c(=O)c2c(O)c(O)c(O[C@@H]3O[C@H](COC(C)=O)[C@H](OC(C)=O)[C@H](OC(C)=O)[C@H]3OC(C)=O)cc2c1
Request: Form: Sort by [Absorption maximum 2 A^1%1 cm] Order [ ascending ] Respond with an ordered listing of the labels, as requested.
Result: IV, III, II, I
(IV: 88, III: 176, II: 333, I: 516)

====

- assay-name: UV shielding properties (UV spectra in ethanol)
- Format: physicochemical
- conditions: UV spectra in ethanol
value-kind: Absorption maximum 2 A^1%1 cm

The following molecules have reported results that may help.
[
  {
    "molecule": "CCCCCCCC/C=C\\CCCCCCCCOc1cc2cc(C(=O)OC)cc(O)c(=O)c2c(O)c1O [Compound B-32]",
    "Absorption maximum 2 A^1%1 cm": 203
  },
  {
    "molecule": "CCCCCCCCCCCCOC(=O)c1cc(O)c(=O)c2c(O)c(O)c(OCCCCCCCCCCCC)cc2c1 [Compound B-53]",
    "Absorption maximum 2 A^1%1 cm": 193
  },
  {
    "molecule": "Cc1cc2cc(C(=O)NCCCCP(=O)(O)O)cc(O)c(=O)c2c(O)c1O [Compound B-49]",
    "Absorption maximum 2 A^1%1 cm": 270
  }
]

a. COC(=O)c1cc(O)c(=O)c2c(O)c(O)c(C)cc2c1 [Compound B-6]
b. COC(=O)c1cc(O)c(=O)c2c(OC)c(O)c(OCCO)cc2c1 [Compound B-45]
Request: Could you kindly indicate whether a or b has the higher Absorption maximum 2 A^1%1 cm value? Mark your selection by writing its label.
Result: a
(a: 447, b: 302)

P. COC(=O)c1cc(O)c(=O)c2c(O)c(O)c(OCCCO[C@@H]3O[C@H](CO)[C@@H](O)[C@H](O)[C@H]3O)cc2c1 [Compound B-13]
Q. COC(=O)c1cc(O)c(=O)c2c(O)c(O)c(OC)cc2c1 [Compound B-5]
Request: Which of these two has the smaller recorded Absorption maximum 2 A^1%1 cm: P or Q ? Use the label to indicate which entry you chose.
Result: P
